- Test system: Clostridium perfringens (Type A NTCT8237)
- Assay type: in vivo, ICR mice
- conditions: emulsion solution 100 mg/mouse, 3 hours before C. perfringens 2.4×10^7 cells/mouse; 24 hr
Listing of entries alongside the reported The number surviving/Administered group After 24 hr.

Some entries whose results are on file:
| compound | value-reported |
| --- | --- |
| CCCCCCCCCCCCCC(CCCCCCCCCCCCC)C(=O)NCC1O[C@H](O[C@H]2OC(CNC(=O)C(CCCCCCCCCCCCC)CCCCCCCCCCCCC)[C@@H](O)C(O)C2O)C(O)C(O)[C@@H]1O (stereo partly shown) [Ex. 4] | 4/4 |
| CCCCCCCCCCC(CCCCCCCCCC)C(=O)NCC1O[C@H](O[C@H]2OC(CNC(=O)C(CCCCCCCCCC)CCCCCCCCCC)[C@@H](O)C(O)C2O)C(O)C(O)[C@@H]1O (stereo partly shown) [Ex. 1] | 4/4 |
| CCCCCCCCCCCCCCC[C@@H](O)[C@@H](CCCCCCCCCCCCCC)C(=O)OCC1O[C@H](O[C@H]2OC(COC(=O)[C@H](CCCCCCCCCCCCCC)[C@H](O)CCCCCCCCCCCCCCC)[C@@H](O)[C@H](O)C2O)C(O)[C@@H](O)[C@@H]1O (stereo partly shown) [TDCM, trehalose 6,6′-dicorynomycolate, reference compound] | 4/4 |

Entry CCCCCCCCCCCCCCC(CCCCCCCCCCCCCC)C(=O)NCC1O[C@H](O[C@H]2OC(CNC(=O)C(CCCCCCCCCCCCCC)CCCCCCCCCCCCCC)[C@@H](O)C(O)C2O)C(O)C(O)[C@@H]1O (stereo partly shown) [Ex. 5] has what The number surviving/Administered group After 24 hr?
4/4
